target: ROCK2 (Homo sapiens, UniProt O75116)
Sequence (O75116 whole entry): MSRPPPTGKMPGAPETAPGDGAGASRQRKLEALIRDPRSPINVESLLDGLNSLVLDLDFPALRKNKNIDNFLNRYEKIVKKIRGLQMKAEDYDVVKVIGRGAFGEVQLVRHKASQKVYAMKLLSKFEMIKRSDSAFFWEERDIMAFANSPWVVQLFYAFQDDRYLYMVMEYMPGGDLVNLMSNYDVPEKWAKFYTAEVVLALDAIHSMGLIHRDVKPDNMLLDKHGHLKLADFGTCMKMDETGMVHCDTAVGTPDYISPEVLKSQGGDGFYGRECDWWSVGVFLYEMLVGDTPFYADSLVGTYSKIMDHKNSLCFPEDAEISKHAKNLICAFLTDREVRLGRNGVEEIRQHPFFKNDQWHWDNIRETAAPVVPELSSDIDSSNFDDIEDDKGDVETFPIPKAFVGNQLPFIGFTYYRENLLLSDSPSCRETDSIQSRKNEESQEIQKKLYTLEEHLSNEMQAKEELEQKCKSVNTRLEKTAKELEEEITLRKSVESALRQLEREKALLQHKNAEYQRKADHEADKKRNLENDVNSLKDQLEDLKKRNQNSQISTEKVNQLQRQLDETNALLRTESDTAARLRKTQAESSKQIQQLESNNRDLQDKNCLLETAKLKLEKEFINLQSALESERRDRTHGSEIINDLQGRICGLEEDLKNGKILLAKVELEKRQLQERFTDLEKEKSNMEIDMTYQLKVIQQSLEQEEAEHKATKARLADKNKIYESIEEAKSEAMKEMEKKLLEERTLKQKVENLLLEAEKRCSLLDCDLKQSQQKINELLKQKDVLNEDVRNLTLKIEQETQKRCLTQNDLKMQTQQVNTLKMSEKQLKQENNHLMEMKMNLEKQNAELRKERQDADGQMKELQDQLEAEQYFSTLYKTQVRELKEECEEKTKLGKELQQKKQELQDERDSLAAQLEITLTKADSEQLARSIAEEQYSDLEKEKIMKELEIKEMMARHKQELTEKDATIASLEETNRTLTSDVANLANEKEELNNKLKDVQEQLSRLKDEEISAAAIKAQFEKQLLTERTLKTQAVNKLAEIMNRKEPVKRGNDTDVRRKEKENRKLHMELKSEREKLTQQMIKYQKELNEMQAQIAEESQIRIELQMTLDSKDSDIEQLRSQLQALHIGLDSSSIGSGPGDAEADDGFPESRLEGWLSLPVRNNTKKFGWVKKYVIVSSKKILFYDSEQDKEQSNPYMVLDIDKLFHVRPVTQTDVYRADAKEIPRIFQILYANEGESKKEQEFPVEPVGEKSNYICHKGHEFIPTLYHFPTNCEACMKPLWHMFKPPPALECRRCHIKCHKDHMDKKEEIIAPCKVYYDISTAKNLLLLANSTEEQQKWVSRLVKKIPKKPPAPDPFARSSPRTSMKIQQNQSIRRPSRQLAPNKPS
METRIC: Kd (nM)
Return type: number; implicit unit nM.

Need Kd, item COc1cc2c(NC3CCN(C)CC3)cc(-c3ccc(C)o3)nc2cc1OCCCN1CCCC1
1700

----------
test: in vivo; set-up: species or system mice; settings: mouse, iv, […]
METRIC: half-life (h)
Return type: number; implicit unit h.

Need half-life, item COc1cc2c(NC3CCN(C)CC3)cc(-c3ccc(C)o3)nc2cc1OCCCN1CCCC1
24.2

----------
molecular target: DNMT3B (Homo sapiens)
Reported values of pIC50 for individual entries
Hey, just a heads up that pIC50 is the negative log base 10 of the concentration in molar.

SMI	ASSAY_SYSTEM	pIC50
COc1cc2c(NC3CCN(C)CC3)cc(-c3ccc(C)o3)nc2cc1OCCCN1CCCC1	DNMT3B (Homo sapiens)	5.92

Need pIC50, item COc1cc2c(NCC3CCN(C)CC3)cc(-c3ccc(C)o3)nc2cc1OCCCN1CCCC1
6.00
